- Test system: 883617-216-R-J1-PDC tumor spheroids, viability
- method: Anticancer human tumor 883617-216-R-J1-PDC patient-derived bladder carcinoma cell line growth inhibition [PI3K]
- run-conditions: second compound 1 µM; first compound 1 µM; active compounds read low; spheroids with HUVEC and MSC
Below: a set of entries, each annotated with reported viability, T/C.

molecule	viability, T/C (%)
C=CC(=O)N1CCN(c2nc(=O)n(-c3c(C)ccnc3C(C)C)c3nc(-c4c(O)cccc4F)c(F)cc23)C(C)C1 (stereo not drawn) + COc1c(OCCCN2CCOCC2)ccc2c3n(c(=NC(=O)c4cnc(N)nc4)nc12)CCN3	0.95
C#Cc1c(F)ccc2cc(O)cc(-c3ncc4c(N5CC6CCC(C5)N6)nc(OCC56CCCN5CC(F)C6)nc4c3F)c12 (stereo not drawn) + CC(Nc1ccc2c(c1)OCCn1cc(N3C(=O)OCC3C(F)F)nc1-2)C(N)=O	12.8
CC1(C)CCC(CN2CCN(c3ccc(C(=O)NS(=O)(=O)c4ccc(NCC5CCOCC5)c([N+](=O)[O-])c4)c(Oc4cnc5[nH]ccc5c4)c3)CC2)=C(c2ccc(Cl)cc2)C1 + COc1c(OCCCN2CCOCC2)ccc2c3n(c(=NC(=O)c4cnc(N)nc4)nc12)CCN3	3.15
CCCS(=O)(=O)Nc1ccc(F)c(C(=O)c2c[nH]c3ncc(-c4ccc(Cl)cc4)cc23)c1F + CC(Nc1ccc2c(c1)OCCn1cc(N3C(=O)OCC3C(F)F)nc1-2)C(N)=O	23
Cn1ncc(Cl)c1-c1cc(C(=O)NC(CN)Cc2cccc(F)c2)sc1Cl (stereo not drawn) + CC(Nc1ccc2c(c1)OCCn1cc(N3C(=O)OCC3C(F)F)nc1-2)C(N)=O	8.52
CC1(C)CCC(Nc2ncc(C(F)(F)F)c(-c3c[nH]c4c(P(C)(C)=O)c(C#N)ccc34)n2)CN1 (stereo not drawn) + Cc1nc(NC(=O)N2CCCC2C(N)=O)sc1-c1ccnc(C(C)(C)C(F)(F)F)c1	19.3
C[C@@H](NC(=O)c1ncnc(N)c1Cl)c1ncc(C(=O)Nc2cc(C(F)(F)F)c(Cl)cn2)s1 + CC(Nc1ccc2c(c1)OCCn1cc(N3C(=O)OCC3C(F)F)nc1-2)C(N)=O	16.9
CC(C)NCC(C(=O)N1CCN(c2ncnc3c2C(C)CC3O)CC1)c1ccc(Cl)cc1 (stereo not drawn) + Cc1nc(NC(=O)N2CCCC2C(N)=O)sc1-c1ccnc(C(C)(C)C(F)(F)F)c1	15.2

====

- System: 883617-216-R-J1-PDC tumor spheroids, viability
- method: Anticancer human tumor 883617-216-R-J1-PDC cell line growth inhibition [PI3K];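 note: spheroids exposed to agents for 7 days before the viability read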
- run-conditions: second compound 0.01 µM; first compound 10 µM; active compounds read low; spheroids with HUVEC and MSC
# fulfilled = viability, T/C below 30% (exclusive); not fulfilled = viability, T/C at/above 30%

molecule	test-target	class
C=CC(=O)N1CCN(c2nc(=O)n(-c3c(C)ccnc3C(C)C)c3nc(-c4c(O)cccc4F)c(F)cc23)C(C)C1 (stereo not given) + COc1c(OCCCN2CCOCC2)ccc2c3n(c(=NC(=O)c4cnc(N)nc4)nc12)CCN3	883617-216-R-J1-PDC tumor spheroids, viability	not fulfilled
C[C@@H](NC(=O)c1ncnc(N)c1Cl)c1ncc(C(=O)Nc2cc(C(F)(F)F)c(Cl)cn2)s1 + COc1c(OCCCN2CCOCC2)ccc2c3n(c(=NC(=O)c4cnc(N)nc4)nc12)CCN3	883617-216-R-J1-PDC tumor spheroids, viability	not fulfilled
Cn1nccc1Nc1nccc(-c2ccn(C(CO)c3ccc(Cl)c(F)c3)c(=O)c2)n1 (stereo not given) + COc1c(OCCCN2CCOCC2)ccc2c3n(c(=NC(=O)c4cnc(N)nc4)nc12)CCN3	883617-216-R-J1-PDC tumor spheroids, viability	not fulfilled
C#Cc1c(F)ccc2cc(O)cc(-c3ncc4c(N5CC6CCC(C5)N6)nc(OCC56CCCN5CC(F)C6)nc4c3F)c12 (stereo not given) + COc1c(OCCCN2CCOCC2)ccc2c3n(c(=NC(=O)c4cnc(N)nc4)nc12)CCN3	883617-216-R-J1-PDC tumor spheroids, viability	not fulfilled
CC1(C)CCC(Nc2ncc(C(F)(F)F)c(-c3c[nH]c4c(P(C)(C)=O)c(C#N)ccc34)n2)CN1 (stereo not given) + CC(Nc1ccc2c(c1)OCCn1cc(N3C(=O)OCC3C(F)F)nc1-2)C(N)=O	883617-216-R-J1-PDC tumor spheroids, viability	fulfilled

====

- Test system: 883617-216-R-J1-PDC tumor spheroids, viability
- method: Anticancer human tumor 883617-216-R-J1-PDC cell line growth inhibition [PI3K]; active means viability on the fitted dose curve at most 10% of control; inactive means the rest;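 note: spheroids exposed to agents for 7 days before the viability read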
- run-conditions: second compound 10 µM; first compound 0.000316 µM; spheroids with HUVEC and MSC
Labels: active, inactive

compound	class
CC(C)n1nc(-c2ccc3oc(N)nc3c2)c2c(N)ncnc21 + CC(Nc1ncnc2nc[nH]c12)c1cc2cccc(Cl)c2c(=O)n1-c1ccccc1	inactive
CC(=O)c1c(C)c2cnc(Nc3ccc(N4CCNCC4)cn3)nc2n(C2CCCC2)c1=O + CC(Nc1ncnc2nc[nH]c12)c1cc2cccc(Cl)c2c(=O)n1-c1ccccc1	inactive
CC(C)n1nc(-c2ccc3oc(N)nc3c2)c2c(N)ncnc21 + Cc1nc(NC(=O)N2CCCC2C(N)=O)sc1-c1ccnc(C(C)(C)C(F)(F)F)c1	active
Cn1ncnc1[C@H]1c2n[nH]c(=O)c3cc(F)cc(c23)N[C@@H]1c1ccc(F)cc1 + Cc1nc(NC(=O)N2CCCC2C(N)=O)sc1-c1ccnc(C(C)(C)C(F)(F)F)c1	active
CC(=O)c1c(C)c2cnc(Nc3ccc(N4CCNCC4)cn3)nc2n(C2CCCC2)c1=O + Cc1nc(NC(=O)N2CCCC2C(N)=O)sc1-c1ccnc(C(C)(C)C(F)(F)F)c1	active
Cn1ncnc1[C@H]1c2n[nH]c(=O)c3cc(F)cc(c23)N[C@@H]1c1ccc(F)cc1 + CC(Nc1ncnc2nc[nH]c12)c1cc2cccc(Cl)c2c(=O)n1-c1ccccc1	inactive

====

- Test system: 883617-216-R-J1-PDC tumor spheroids, viability
- method: Anticancer human tumor 883617-216-R-J1-PDC cell line growth inhibition [PI3K];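 note: spheroids exposed to agents for 7 days before the viability read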
- run-conditions: second compound 0.316 µM; first compound 0.000316 µM; active compounds read low; spheroids with HUVEC and MSC

compound	viability, T/C, %
CC(C)n1nc(-c2ccc3oc(N)nc3c2)c2c(N)ncnc21 + CC(Nc1ccc2c(c1)OCCn1cc(N3C(=O)OCC3C(F)F)nc1-2)C(N)=O	31.9
CC(C)n1nc(-c2ccc3oc(N)nc3c2)c2c(N)ncnc21 + COc1c(OCCCN2CCOCC2)ccc2c3n(c(=NC(=O)c4cnc(N)nc4)nc12)CCN3	5.33
Cn1ncnc1[C@H]1c2n[nH]c(=O)c3cc(F)cc(c23)N[C@@H]1c1ccc(F)cc1 + Cc1nc(NC(=O)N2CCCC2C(N)=O)sc1-c1ccnc(C(C)(C)C(F)(F)F)c1	43.5

====

- Test system: 883617-216-R-J1-PDC tumor spheroids, viability
- method: Anticancer human tumor 883617-216-R-J1-PDC cell line growth inhibition [PI3K]; active means viability on the fitted dose curve at most 10% of control; inactive means the rest;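 note: spheroids exposed to agents for 7 days before the viability read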
- run-conditions: second compound 10 µM; first compound 0.316 µM; spheroids with HUVEC and MSC
Labels: active, inactive

compound	class
C#Cc1c(F)ccc2cc(O)cc(-c3ncc4c(N5CC6CCC(C5)N6)nc(OCC56CCCN5CC(F)C6)nc4c3F)c12 (stereo not drawn) + CC(Nc1ncnc2nc[nH]c12)c1cc2cccc(Cl)c2c(=O)n1-c1ccccc1	inactive
Cn1ncc(Cl)c1-c1cc(C(=O)NC(CN)Cc2cccc(F)c2)sc1Cl (stereo not drawn) + CC(Nc1ncnc2nc[nH]c12)c1cc2cccc(Cl)c2c(=O)n1-c1ccccc1	inactive
CCCS(=O)(=O)Nc1ccc(F)c(C(=O)c2c[nH]c3ncc(-c4ccc(Cl)cc4)cc23)c1F + Cc1nc(NC(=O)N2CCCC2C(N)=O)sc1-c1ccnc(C(C)(C)C(F)(F)F)c1	active

====

- Test system: 883617-216-R-J1-PDC tumor spheroids, viability
- method: Anticancer human tumor 883617-216-R-J1-PDC cell line growth inhibition [PI3K]; active means viability on the fitted dose curve at most 10% of control; inactive means the rest;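 note: spheroids exposed to agents for 7 days before the viability read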
- run-conditions: second compound 3.16 µM; first compound 3.16 µM; spheroids with HUVEC and MSC
Labels: 1 (yes) (active), 0 (no) (inactive)

molecule	test-target	class
C#Cc1c(F)ccc2cc(O)cc(-c3ncc4c(N5CC6CCC(C5)N6)nc(OCC56CCCN5CC(F)C6)nc4c3F)c12 (configuration not stated) + CC(Nc1ncnc2nc[nH]c12)c1cc2cccc(Cl)c2c(=O)n1-c1ccccc1	883617-216-R-J1-PDC tumor spheroids, viability	0 (no)
Cn1nccc1Nc1nccc(-c2ccn(C(CO)c3ccc(Cl)c(F)c3)c(=O)c2)n1 (configuration not stated) + CC(Nc1ncnc2nc[nH]c12)c1cc2cccc(Cl)c2c(=O)n1-c1ccccc1	883617-216-R-J1-PDC tumor spheroids, viability	0 (no)
C[C@@H](NC(=O)c1ncnc(N)c1Cl)c1ncc(C(=O)Nc2cc(C(F)(F)F)c(Cl)cn2)s1 + CC(Nc1ncnc2nc[nH]c12)c1cc2cccc(Cl)c2c(=O)n1-c1ccccc1	883617-216-R-J1-PDC tumor spheroids, viability	0 (no)
CC1(C)CCC(CN2CCN(c3ccc(C(=O)NS(=O)(=O)c4ccc(NCC5CCOCC5)c([N+](=O)[O-])c4)c(Oc4cnc5[nH]ccc5c4)c3)CC2)=C(c2ccc(Cl)cc2)C1 + CC(Nc1ncnc2nc[nH]c12)c1cc2cccc(Cl)c2c(=O)n1-c1ccccc1	883617-216-R-J1-PDC tumor spheroids, viability	0 (no)
CNC(=O)c1ccc(N2C(=S)N(c3ccc(C#N)c(C(F)(F)F)c3)C(=O)C2(C)C)cc1F + CC(Nc1ncnc2nc[nH]c12)c1cc2cccc(Cl)c2c(=O)n1-c1ccccc1	883617-216-R-J1-PDC tumor spheroids, viability	0 (no)
C[C@@H](NC(=O)c1ncnc(N)c1Cl)c1ncc(C(=O)Nc2cc(C(F)(F)F)c(Cl)cn2)s1 + Cc1nc(NC(=O)N2CCCC2C(N)=O)sc1-c1ccnc(C(C)(C)C(F)(F)F)c1	883617-216-R-J1-PDC tumor spheroids, viability	0 (no)
Cn1ncc(Cl)c1-c1cc(C(=O)NC(CN)Cc2cccc(F)c2)sc1Cl (configuration not stated) + Cc1nc(NC(=O)N2CCCC2C(N)=O)sc1-c1ccnc(C(C)(C)C(F)(F)F)c1	883617-216-R-J1-PDC tumor spheroids, viability	1 (yes)
CC(Cn1ccc(-c2ccc(C#N)c(Cl)c2)n1)NC(=O)c1cc(C(C)O)[nH]n1 (configuration not stated) + Cc1nc(NC(=O)N2CCCC2C(N)=O)sc1-c1ccnc(C(C)(C)C(F)(F)F)c1	883617-216-R-J1-PDC tumor spheroids, viability	0 (no)
CC(Cn1ccc(-c2ccc(C#N)c(Cl)c2)n1)NC(=O)c1cc(C(C)O)[nH]n1 (configuration not stated) + CC(Nc1ncnc2nc[nH]c12)c1cc2cccc(Cl)c2c(=O)n1-c1ccccc1	883617-216-R-J1-PDC tumor spheroids, viability	0 (no)
CC1(C)CCC(Nc2ncc(C(F)(F)F)c(-c3c[nH]c4c(P(C)(C)=O)c(C#N)ccc34)n2)CN1 (configuration not stated) + CC(Nc1ncnc2nc[nH]c12)c1cc2cccc(Cl)c2c(=O)n1-c1ccccc1	883617-216-R-J1-PDC tumor spheroids, viability	0 (no)
Cn1ncc(Cl)c1-c1cc(C(=O)NC(CN)Cc2cccc(F)c2)sc1Cl (configuration not stated) + CC(Nc1ncnc2nc[nH]c12)c1cc2cccc(Cl)c2c(=O)n1-c1ccccc1	883617-216-R-J1-PDC tumor spheroids, viability	0 (no)
CCCS(=O)(=O)Nc1ccc(F)c(C(=O)c2c[nH]c3ncc(-c4ccc(Cl)cc4)cc23)c1F + Cc1nc(NC(=O)N2CCCC2C(N)=O)sc1-c1ccnc(C(C)(C)C(F)(F)F)c1	883617-216-R-J1-PDC tumor spheroids, viability	0 (no)
